Biological target: T1, recombinant human endotrophin (77 amino acids at the carboxy-terminal of the COL6α3 chain, HEK293-expressed, … (human, UniProt P12111 3101-3177))
T1 construct: the His-tag was removed by enterokinase, leaving the 77 amino acid endotrophin free of tags; also called ETP; recombinant endotrophin protein
T1 sequence (P12111 3101-3177 limits assumed): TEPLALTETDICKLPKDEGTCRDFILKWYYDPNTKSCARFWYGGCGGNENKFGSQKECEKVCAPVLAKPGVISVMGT
Experiment: BLI (Octet RED96), antibody on protein A biosensors, endotrophin 0.1-200 nM, 1:1 fit
Procedure: Following a short baseline in kinetics buffer, the loaded biosensors were exposed to a series of recombinant endotrophin protein at 0.1-200 nM and background subtraction was used to correct for sensor drifting. All experiments were performed with shaking at 1,000 rpm. Background wavelength shifts were measured from reference biosensors that were loaded only with antibody. […]
Measure Name: kon (M⁻¹ s⁻¹)
Reply numerically in M⁻¹ s⁻¹, unit not repeated.

Q. Kindly indicate its recorded kon. Item: ETP-mAb4.5 (humanized ETP-hMab4) (antibody, human IgG1, V domains shown, also called ENT-hMab4.5) VH: EVQLLESGGGLVQPGGSLRLSCAASGFTFSSGYYICWVRQAPGKGLEWIACIYGGNSNPYYANWVNGRFTISRDNSKNTLYLQMNSLRAEDTAVYYCARKDINIGGAYELWGQGTLVTVSS VL: DIQMTQSPSSLSASVGDRVTITCQASQSISSSYLSWYQQKPGKAPKLLIYKASTLASGVPSRFSGSGSGTDFTLTISSLQPEDFATYYCQYSDWANSYGNAFGGGTKVEIK
A. 116000
